measureName: melting point

Some solved entries appear below for comparison.
# compound, measureName, measurement
records = [
    ("O=C(NC(=O)c1cc(F)c(F)cc1Cl)Nc1ccccc1-c1ccc(C(=O)O)o1 [Example 13b]", "melting point", "239.3 °C"),
    ("O=C(NC(=O)c1ccc(F)cc1Cl)Nc1ccccc1-c1ccc(C(=O)O)o1 [Example 13c]", "melting point", "236.3 °C"),
    ("O=C(NC(=O)c1cc(F)c(F)cc1Cl)Nc1ccc(-c2n[nH]c(O)n2)cc1OC(F)(F)F", "melting point", "> 350 °C"),
    ("O=C(NC(=O)c1ccc(F)cc1Cl)Nc1ccc(-c2noc(=O)[nH]2)cc1OC(F)(F)F [Example 11e]", "melting point", "230.1 °C"),
]

As a next step, examine the compound that follows.
Exercise: Name the reported melting point value associated with the compound O=C(NC(=O)c1cc(F)c(F)cc1Cl)Nc1cc(F)ccc1N1CCC(C(=O)O)CC1 [Example 16c]
Solution: 221.7 °C
